Data provenance is PubChem BioAssay (NCI).

Assay: NCI Yeast Anticancer Drug Screen. Data for the bub3 strain (AID 167)
Details: S. cerevisiae bub3 mutant strain, at 50.0 µM, stronger effect = higher value
This is part of a sample that, as a whole, favours compounds with a hit. Of some 79,000 tested, about 15% had one in any assay.
Could you please report measured growth inhibition for the items listed next?
Numbers only; they are read as %.

growth inhibition lookup needed for O=C1[C@@H]2[C@H](C(=O)N1c1ccccc1)[C@H]1CC[C@H]2N1C(=O)c1ccccc1 , thanks.
13.2

Same read-out for c1ccc(C2=NC(c3ccccc3)N3CC23c2ccccc2)cc1 (configuration not stated) ?
15.2

Note, next up: C/C=C1/C[N+]2([O-])CC[C@@]34c5ccc(OC)cc5N(C)[C@H]3C2CC1C4C(=O)OC (some centres not stated)
-10.8

Another compound to check: N#Cc1ccncc1
7.35

Moving on to the next compound: C1CSCCO1.[Cu+2].[O-][Cl+3]([O-])([O-])O
-37

What would you report for CC(C)=N.[C-]#[O+].[C-]#[O+].[C-]#[O+].[C-]#[O+].[C-]#[O+].[W] ?
64.5

Continue with COC(=O)C1=NNC2(c3ccccc3Sc3ccccc32)C1C(=O)OC (configuration not stated)
-18.9

Then O=C(C(Cl)Cl)N1CCCCC1 ?
0

Do the same for C[N+](C)(C)NP(=O)(N[N+](C)(C)C)c1ccccc1 please
1.95

Also Cc1ccc(-n2cnc3c(N(CCCl)CCCl)ncnc32)cc1 , if possible.
23.5

// same read-out, input: CC(=O)OC1(c2nccc3ccccc23)CCN(Cc2ccccc2)CC1
7.25

Next compound: CCCCOC1OCN(C2CCCCC2)CC1(C)C (configuration not stated)
36.8

Note, next up: CCCCCc1cc(OC(=O)CCCN(CC)CC)c2c(c1)OC(C)(C)[C@@H]1CCC(C)=C[C@@H]21
87.8

What would you report for CC1=CC(C(=O)O)P(C)(=O)C1 (configuration not stated) ?
0.4

// repeat for O=[N+]([O-])c1ccccc1-c1ccccc1 and report
-21.8

Queued: O=C(O)COc1ccc(Cl)cc1Cl (tested in a mixture with another compound)
-9.5

Field entry: NS(=O)(=O)c1ccc([As](=O)(O)O)cc1
12.2

Lookup CC(=O)c1ccccc1O.CO.CO.[Cl][Ta][Cl]
3.45

Please give the result for O/N=C1\CN2CCC1CC2 too.
10.4

// next record CC(=O)OC1CCC2C3CCC4CC5(CCC4(C)C3CCC12C)CO5 (configuration not stated)
1.75

Lookup CNC(=O)Oc1cccc(N=CN(C)C)c1
-20.4

Ok, now CCCCSP(=S)(SCCCC)SCCCC
10.1

Here is the next compound: CC1(C)SC2C(NC(=O)Cc3ccccc3)C(=O)N2C1C(=O)O (configuration not stated) (tested in a mixture with another compound)
-12.3

Repeat with Cc1nc2ccccc2c(=O)n1-c1ccc(N(CCCl)CCCl)cc1
4.8

Same question, Nc1cc(N)c([N+](=O)[O-])cc1[N+](=O)[O-] this time
9.8

Another compound: C[C@]12Cc3cnc(-c4ccccc4)nc3C[C@@H]1CC[C@@H]1[C@@H]2CC[C@@]2(C)[C@H]1CC[C@]2(C)O
39.5

Continue with O=C1C(C(Nc2ccccc2)c2ccccc2)=C([O-])c2ccccc21.O=C1C(C(Nc2ccccc2)c2ccccc2)=C([O-])c2ccccc21.[Co+2] (configuration not stated)
77.4
